test: toxicokinetics, 28-day monkey study; assay type: in vivo, cynomolgus monkey; settings: female, cynomolgus monkey, plasma, po, 150 mg/kg/day, monkey, Study Day 21, female, 150 mg/kg/day; read-out: AUCLST
Attribute Measured: AUC (ng·h/mL)

INSERT INTO assay_data (compound, experimental_value) VALUES
  ('CCOCc1cnc(Cl)nc1Oc1ccc2c(ccc3sc4c(c32)NC[C@@H](C)NC4=O)n1 [Compound 1]', 7840);

###

experiment: single oral dose pharmacokinetics in cynomolgus monkeys; format: in vivo, cynomolgus monkey; conditions: cynomolgus monkey, plasma; monkey, male, single oral 375 mg/kg
Attribute Measured: AUC (ng·h/mL)

INSERT INTO assay_data (compound, attribute_measured, experimental_value) VALUES
  ('CCOCc1cnc(Cl)nc1Oc1ccc2c(ccc3sc4c(c32)NC[C@@H](C)NC4=O)n1 [Compound 1]', 'AUC', 13900);

###

Test: single oral dose pharmacokinetics in cynomolgus monkeys
Format: in vivo, cynomolgus monkey
Conditions: cynomolgus monkey, plasma; monkey, male, single oral 50 mg/kg
Description: In vitro and in vivo studies were conducted to characterize the absorption, PK, distribution, and metabolism of Compound 1. […] Additionally, plasma samples from single dose PK studies in mice and monkeys were evaluated for circulating metabolites.
Attribute Measured: Cmax (ng/mL)

INSERT INTO assay_data (compound_string, u, experimental_value) VALUES
  ('CCOCc1cnc(Cl)nc1Oc1ccc2c(ccc3sc4c(c32)NC[C@@H](C)NC4=O)n1', 'ng/mL', 865);

###

Assay: single intravenous dose pharmacokinetics in Sprague Dawley rats
Assay type: in vivo
Settings: plasma, rat, male, single IV 5 mg/kg
Method: In vitro and in vivo studies were conducted to characterize the absorption, PK, distribution, and metabolism of Compound 1. […] Additionally, plasma samples from single dose PK studies in mice and monkeys were evaluated for circulating metabolites.
Attribute Measured: AUC (ng·h/mL)

INSERT INTO assay_data (compound_string, experimental_value) VALUES
  ('CCOCc1cnc(Cl)nc1Oc1ccc2c(ccc3sc4c(c32)NC[C@@H](C)NC4=O)n1', 2020);

###

test: toxicokinetics, 28-day mouse study; format: in vivo; details: male, Crl:CD1 (ICR), mouse, plasma, po, 100 mg/kg/day, mice, Study Day 21, male, 100 mg/kg/day;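 note: AUC to the last measurable time point (AUClast)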
Attribute Measured: AUC

INSERT INTO results (compound_string, experimental_value) VALUES
  ('CCOCc1cnc(Cl)nc1Oc1ccc2c(ccc3sc4c(c32)NC[C@@H](C)NC4=O)n1', '24900 ng·h/mL');

###

assay: single intravenous dose pharmacokinetics in CD-1 mice; format: in vivo, mouse; details: CD-1, plasma; mouse, male, single IV 5 mg/kg
Attribute Measured: clearance

INSERT INTO results (molecule, attribute_measured, experimental_value) VALUES
  ('CCOCc1cnc(Cl)nc1Oc1ccc2c(ccc3sc4c(c32)NC[C@@H](C)NC4=O)n1 [Compound 1]', 'clearance', '19.2 mL/min/kg');

###

Assay: single intravenous dose pharmacokinetics in cynomolgus monkeys
Type: in vivo
Conditions: cynomolgus, cynomolgus monkey, plasma; monkey, male, single IV 5 mg/kg
Description: In vitro and in vivo studies were conducted to characterize the absorption, PK, distribution, and metabolism of Compound 1. […] Additionally, plasma samples from single dose PK studies in mice and monkeys were evaluated for circulating metabolites.
Attribute Measured: clearance (L/h/kg)

INSERT INTO assay_data (compound_string, experimental_value) VALUES
  ('CCOCc1cnc(Cl)nc1Oc1ccc2c(ccc3sc4c(c32)NC[C@@H](C)NC4=O)n1', 2.61);
